Reference for the values: the METLIN SMRT retention time set (Domingo-Almenara et al. 2019)

test: gradient 5% acetonitrile 3 min, to 50% in 2 min, to 85% in 15 min, held 3 min, 100 µL/min; settings: column: Zorbax Extend-C18 2.1 x 50 mm; eluents: water / acetonitrile, 0.1% formic acid
Item-by-item account of RP-LC retention time

| molecule | unit-spec | RP-LC retention time |
| --- | --- | --- |
| Cc1ccnc(N2CCCC(C(=O)NCc3ccc(F)cc3)C2)n1 (stereo not given) | s | 709 |
| COc1ccccc1-c1nnc(NC(=O)COc2ccccc2)o1 | s | 707 |
| Cc1cccc(OCc2nc(C)c(C(=O)Nc3nc(-c4ccccc4)cs3)s2)c1 | s | 1230 |
| Cc1ccc(Cc2nc(CCNC(=O)C3CCN(S(=O)(=O)c4ccc(C)cc4)CC3)n[nH]2)cc1 | s | 769 |
| Cc1c(CCO)c(=O)n2n1CCCC2 | s | 618 |
| O=C(Nc1ccc(F)cc1)C1CCCN(c2ccc3cc(S(=O)(=O)N4CCCCC4)ccc3n2)C1 (stereo not given) | s | 883 |
| CSc1ccc(C2c3[nH]c4ccccc4c3CCN2C(=O)c2ccco2)cc1 (stereo not given) | s | 1140 |
| COCc1cc(=O)n(Cc2cccc(F)c2)c(N2CCCC2)n1 | s | 806 |
| CCCc1nc(NCc2ccc(OC)c(OC)c2)ncc1C(=O)O | s | 740 |
| Cc1ccc(Nc2c(-c3ccc(O)cc3)nc3ccc(Cl)cn23)cc1 | s | 696 |

----------
The reader will find reported RP-LC retention time values listed item by item below.
experiment: gradient 5% acetonitrile 3 min, to 50% in 2 min, to 85% in 15 min, held 3 min, 100 µL/min; conditions: column: Zorbax Extend-C18 2.1 x 50 mm; eluents: water / acetonitrile, 0.1% formic acid
assay-metric: RP-LC retention time (s)

| compound | reported-result |
| --- | --- |
| Cc1cc(C(=O)NCCc2ccc(Cl)cc2)c2c(=O)n(C)c(=O)n(C)c2n1 | 835 |
| O=C(CCn1nnc2cc(-c3noc(COc4ccc(Cl)cc4)n3)ccc21)N1CCOCC1 | 866 |
| CCCCNC(=O)C1CCN(C(=O)Nc2ccc(NC(=O)NC3CCCCC3)cc2)CC1 | 732 |
| CCOCCCNC(=O)[C@@H]1[C@H](c2cc(OC)c(OC)c(OC)c2)c2cc3c(cc2[C@H](O)[C@H]1CO)OCO3 | 653 |
| CCc1nc2ccccc2c(=O)n1Cc1noc(-c2cccc(OC)c2OC)n1 | 872 |
| COc1ccc(OC)c(NC(=O)C2(C)Oc3cccnc3NC2=O)c1 (stereo not drawn) | 746 |
| C=CCNC(=O)[C@@H]1[C@H](c2cc(OC)c(OC)c(OC)c2)c2cc3c(cc2[C@H](O)[C@H]1CO)OCO3 | 649 |
| CCCNC(=O)C1CCCN(C(=O)c2[nH]c(C)c(C)c2C)C1 (stereo not drawn) | 721 |
| Cc1cc(NC(=O)CN2C(=O)CN(C)C(=O)c3ccccc32)ccc1Br | 765 |
| Cc1nnc(CNC(=O)C(=O)Nc2ccc3c(c2)OCCO3)o1 | 615 |
| Cn1cc2c(N3CCCC3)nc(C(=O)NCCN3CCc4ccccc4C3)nc2n1 | 523 |
| Cn1c(=O)cc(N2CCC[C@@H](N)C2)n(Cc2ccccc2C#N)c1=O | 641 |
| CC1CCN(S(=O)(=O)c2ccc(-c3nnc(C4CC4)o3)o2)CC1 | 933 |
| Cc1cc(-c2nnc(C3CCC3)o2)c(C)n1CC(=O)Nc1ccccc1 | 846 |
| CCNCc1ccc(-c2cc(Cl)ccc2Cl)o1 | 686 |
| Cc1cccc(-n2c(N3CCCC(C(=O)NCc4cccs4)C3)nc3ccsc3c2=O)c1 (stereo not drawn) | 876 |
| Cn1nc(C(=O)N2CCCC(C(=O)N3CCCC3)C2)c2c1CCN(C(=O)c1c(F)cccc1F)C2 (stereo not drawn) | 686 |
| CC(C)CCC(=O)N1CCN(c2nc3c(s2)CN(C)CC3)CC1 | 597 |
| CN1Cc2c(N)cccc2C(c2ccccc2)C1 (stereo not drawn) | 678 |
| O=C(NCc1cccc(F)c1)c1ccc2c(c1)ncn2CCN1CCCC1 | 582 |
| Cc1cc2c(cc1S(=O)(=O)N1CCCC1C(=O)NCc1ccc3c(c1)OCO3)OC(C)C(=O)N2 (stereo not drawn) | 755 |
| O=C(Cn1cnc2ccccc2c1=O)N[C@@H](C(=O)O)c1ccc(O)cc1 | 589 |
| CCOc1cccc2c(C)nc(NC3=NCN(CCOC)CN3)nc12 | 643 |
| CCN(CC)S(=O)(=O)c1ccc2c(c1)N(CC(=O)NCc1cccs1)C(=O)C1CCCCN21 (stereo not drawn) | 949 |
| O=C(NC1CCCC1)N1CCC(c2nc(C3CCOCC3)no2)CC1 | 691 |
| CCOCc1cc(OC)c(-c2ccc(C[C@H](NC(=O)c3c(F)cccc3F)C(=O)O)cc2)c(OC)c1 | 1020 |
| CCc1cc(C(=O)N2CCN(c3ccccn3)CC2)nc2cc(-c3cccs3)nn12 | 706 |
| O=C(Nc1nccs1)C1CCN(c2nc(-c3ccc(Cl)cc3)no2)CC1 | 976 |
| COc1cccc(-c2noc(C3CCCN3C(=O)c3ccoc3)n2)c1 (stereo not drawn) | 854 |
| CC(C)OCCCNCc1ccc2c(c1)n(C)c(=O)n2C | 592 |
| Cc1ccc(C2CCCN2C(=O)c2nc3nc(C)cc(C(F)F)n3n2)cc1 (stereo not drawn) | 835 |
| COc1ccc(-c2cn3c(CC(=O)N4CCN(Cc5ccccc5)CC4)csc3n2)cc1OC | 596 |
| CCCn1ccc2sc(C)c(C(=O)NCc3ccc(OC)c(OC)c3)c2c1=O | 780 |
| CCc1cc(Br)ccc1NC(=O)C1CCCN(c2nc3ccccc3nc2OC)C1 (stereo not drawn) | 1300 |
| CC(C)n1cnc(S(=O)(=O)N2CCC(C(=O)N3CCN(c4ccc(Cl)cc4)CC3)CC2)c1 | 865 |
| COCCCNc1nc(-c2ccc(C(C)(C)C)cc2)nc2ccccc12 | 843 |
| CCc1nc2cc(-c3noc(Cc4ccccc4Cl)n3)ccc2o1 | 1170 |
| COCCn1cc(CC(=O)NC2CCCCCC2)c2cccnc21 | 746 |
